The reported measurements were obtained from patent US20130129753A1.

- System tested: T1, IL-13Rα2 receptor (human, UniProt Q14627 27-380)
- T1 sequence (looked up): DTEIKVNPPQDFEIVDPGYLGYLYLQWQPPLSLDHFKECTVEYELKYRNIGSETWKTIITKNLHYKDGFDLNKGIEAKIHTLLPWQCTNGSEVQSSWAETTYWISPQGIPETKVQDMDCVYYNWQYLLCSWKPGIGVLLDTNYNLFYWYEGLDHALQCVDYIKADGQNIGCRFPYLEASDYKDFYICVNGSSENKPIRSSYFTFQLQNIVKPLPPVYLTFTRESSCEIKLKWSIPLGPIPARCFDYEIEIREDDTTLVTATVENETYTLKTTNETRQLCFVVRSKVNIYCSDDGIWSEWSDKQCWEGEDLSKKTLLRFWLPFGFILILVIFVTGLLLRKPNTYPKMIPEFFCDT
- Protocol text: cell-based or functional assay
Reported metric: IC50 (ng Ab/mL), viability of A375 cells

Binder: IL13Ra2-AB08-v1010-hG1-(C)_mc-#117 (antibody, V domains shown, drug-linker mc-#117 on cysteine (C), positions not given; drug-linker mc-#117 on cysteine (C), positions not given; DAR 3.3 per antibody) VH: EVQLVESGGGLVQPGGSLRLSCAASGFTFSRNGMSWVRQAPGKGLEWVATVSSGGSYIYYADSVKGRFTISRDNAKNSLYLQMNSLRAEDTAVYYCARQGTTALATRFFDVWGQGTLVTVSS VL: DIQMTQSPSSLSASVGDRVTITCKASQDVGTAVAWYQQKPGKAPKLLIYSASYRSTGVPSRFSGSGSGTDFTLTISSLQPEDFATYYCQHHYSAPWTFGGGTKVEIKT
Unit info: ng Ab/mL
Observed value: 2.4
